- tested.system: T1, human [1-157]-mouse chimeric EL (human; mouse, UniProt Q9WVG5 158-500)
- T1 construct: Heparin extract, detected by an anti-C2-tag antibody
- T1 sequence: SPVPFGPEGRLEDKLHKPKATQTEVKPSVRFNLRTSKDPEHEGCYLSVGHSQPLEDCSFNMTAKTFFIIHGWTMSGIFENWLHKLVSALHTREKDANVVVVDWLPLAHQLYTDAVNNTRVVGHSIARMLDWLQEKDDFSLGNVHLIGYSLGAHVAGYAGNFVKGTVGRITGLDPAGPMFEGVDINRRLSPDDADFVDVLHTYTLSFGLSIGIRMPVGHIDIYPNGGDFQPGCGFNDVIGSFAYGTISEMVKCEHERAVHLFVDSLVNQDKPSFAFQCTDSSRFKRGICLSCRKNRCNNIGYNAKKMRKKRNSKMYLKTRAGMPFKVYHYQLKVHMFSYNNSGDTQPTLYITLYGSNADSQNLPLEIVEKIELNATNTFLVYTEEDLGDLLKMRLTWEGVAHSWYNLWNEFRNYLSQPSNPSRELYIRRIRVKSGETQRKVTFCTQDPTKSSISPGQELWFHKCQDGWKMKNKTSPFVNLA
- protocol.text: ELISA: antibody captured on anti-mouse IgG-Fc plate, EL heparin extract added, detection with biotin anti-C2-tag antibody and HRP-streptavidin, A450
metric: EC50 (read off the curve)

binder: 13B3 (antibody, mouse IgG2a, V domains shown, mouse IgG2a from hybridoma; also called 13B3 (mouse mAb)) VH: EVQLQQSGPELLKPGASVKISCKASGYTFTEYTMHWVKQSHGKSLEWIGSINPYYGGTSYNEKFKDKATLTVDKSSNTAYMEFRSLTSEDCAVYYCARYGNYVGYFDYWGQGTTLTVSS VL: ENVLTQSPAIMSASLGEKVTMSCRASSSVHYMYWYQQKSDASPKLWIYYTSNLAPGVPDRFSGSGSGNSYSLTISSMEGEDAATYYCQQFTSSPYTFGGGTKLEIK
EC50 (read off the curve): ~4 ng/mL

[ask] Please report the recorded EC50 (read off the curve) for 7D4 (antibody, mouse IgG1, V domains shown, mouse IgG1 from hybridoma) VH: QIQLVQSGPELKKPGETVKISCKASGYTFTNYGMNWVKQAPGKDLKWMGWINTYSGVPTYADDFKGRFAFSLETSASTAYLQINNLKNEDTATYFCARFSYYGRHYFDYWGQGTTLTVSS VL: DIVLTQSPASLAVSLGQRATISCKASQSVDYDGDSYMNWYQQKPGQPPQLLIYAASNLGSGIPARFSGSGSGTDFTLNIHPVEEEDAATYYCHQSTDDPPWTFGGGTKLEIK .
[reply] ~6 ng/mL

[ask] Please report the recorded EC50 (read off the curve) for 55A1 (antibody, mouse IgG2a, V domains shown, mouse IgG2a from hybridoma; also called 55A1 (mouse mAb)) VH: QIHLVQSGPELKKPGETVKISCKASGYTFTNYGMNWVKQAPGKGLKWMGWINTYSGVPTYAGDFKGRFAFSLETSASTAYLQINNLKNEDTATYFCARRGYYGRRYFDVWGTGTTVTVSS VL: DIVLTQSPASLAVSLGQRATISCKASQSVDYDVDSYMHWYQQKPGQPPKLLIYAASNLASGIPARFSGGGSGTDFTLNIHPVEEEDVATYYCQQTIEDPPTFGGGTKLEIK .
[reply] ~4 ng/mL

[ask] Please report the recorded EC50 (read off the curve) for 53A11 (antibody, mouse IgG2a, V domains shown, mouse IgG2a from hybridoma; also called 53A11 (mouse mAb)) VH: EVQLQQSGPELLKPGASVKISCKASGYTFTDYTMHWVKQSHGKSLEWIGGINPYYGGTTYNEKFKDKATLTVDKSSSTAYMELRSLTSEDSAVYYCAKGDYYGGSYNYWGQGTTLTVSS VL: DIVLTQSLATLSVTPGDSVSLSCRASQDISNSLHWYQQKSHESPRLLIKYASQSISGIPSRFSGSGSGTDFTLSINSVETEDFGMYFCQQSNSWPYTFGGGTKLEIK .
[reply] ~6 ng/mL
